# measurement.notes: Plasma concentration in Sprague-Dawley rat plasma at 10 mg/kg, iv after 180 mins by LC-MS/MS analysis
# Format: ADME, organism-based
# maps each entry to its concentration at 3 h
measured.quantity: concentration at 3 h (µg/mL)

compound | unit.annotation | data.value
Cc1ccc2c(c1)c1c(n2CCNC(=O)c2ncn3c(=O)n(C)nnc23)CCN(C)C1 | µg/mL | 0.0671
Cc1ccc2[nH]c3c(c2c1)CN(CCNC(=O)c1ncn2c(=O)n(C)nnc12)CC3 | µg/mL | 0.0992
Cn1nnc2c(C(N)=O)ncn2c1=O [TEMOZOLOMIDE] | µg/mL | 3.1
Cn1nnc2c(C(=O)N3CCc4c(n(C5CC5)c5c(Cl)cc(Cl)cc45)C3)ncn2c1=O | µg/mL | 0.347
Cc1ccc2c(c1)c1c(n2C)CN(C(=O)c2ncn3c(=O)n(C)nnc23)CC1 | µg/mL | 0.119
CN1CCc2c(n(CCNC(=O)c3ncn4c(=O)n(C)nnc34)c3ccc(Cl)cc23)C1 | µg/mL | 0.0437
Cc1ccc2c(c1)c1c(n2C)CCN(CCNC(=O)c2ncn3c(=O)n(C)nnc23)C1 | µg/mL | 0.539

----------
# maps each entry to its fraction unbound at 1 h, 10 µM
# measurement.notes: Fraction unbound in mouse brain assessed as compound level in insoluble tissue fraction at 10 uM after 1 hr by LC-MS/MS analysis
# Assay type: ADME, tissue-based
# assay.conditions: in the assay text read “soluble supernatant fraction” for “insoluble tissue fraction”
measured.quantity: fraction unbound at 1 h, 10 µM

molecule | data.value
CN1CCc2c(n(CCNC(=O)c3ncn4c(=O)n(C)nnc34)c3ccc(Cl)cc23)C1 | 0.11
Nc1[nH]cnc1C(=O)N1CCc2c(n(C3CC3)c3c(Cl)cc(Cl)cc23)C1 | 0.01
Cn1nnc2c(C(N)=O)ncn2c1=O [TEMOZOLOMIDE] | 0.5
NC(=O)c1[nH]cnc1N | 0.48
CN1CCc2c(n(CCNC(=O)c3nc[nH]c3N)c3ccc(Cl)cc23)C1 | 0.07
Cc1ccc2c(c1)c1c(n2C)CN(C(=O)c2ncn3c(=O)n(C)nnc23)CC1 | 0.02
Cn1nnc2c(C(=O)N3CCc4c(n(C5CC5)c5c(Cl)cc(Cl)cc45)C3)ncn2c1=O | 0.03
Cc1ccc2c(c1)c1c(n2C)CN(C(=O)c2nc[nH]c2N)CC1 | 0.01

----------
# measurement.notes: AUC in Sprague-Dawley rat brain at 10 mg/kg, iv after 30 to 180 mins by LC-MS/MS analysis
# Type: ADME, organism-based

smiles.input | AUC (ng·h/mL)
Cc1ccc2[nH]c3c(c2c1)CN(CCNC(=O)c1ncn2c(=O)n(C)nnc12)CC3 | 750
Cc1ccc2c(c1)c1c(n2C)CCN(CCNC(=O)c2ncn3c(=O)n(C)nnc23)C1 | 4010
Cc1ccc2c(c1)c1c(n2C)CN(C(=O)c2ncn3c(=O)n(C)nnc23)CC1 | 2470
CN1CCc2c(n(CCNC(=O)c3ncn4c(=O)n(C)nnc34)c3ccc(Cl)cc23)C1 | 525
Cc1ccc2c(c1)c1c(n2CCNC(=O)c2ncn3c(=O)n(C)nnc23)CCN(C)C1 | 638
Cn1nnc2c(C(=O)N3CCc4c(n(C5CC5)c5c(Cl)cc(Cl)cc45)C3)ncn2c1=O | 11200

// data source = ChEMBL document CHEMBL3853338
